Attribution: ChEMBL document CHEMBL4616628

pIC50: −log10 of the molar value.
The reader will find pIC50 measurements below, all made with NAD-dependent protein deacetylase sirtuin-3, mitochondrial (Homo sapiens, UniProt Q9NTG7).
Sequence (Q9NTG7 whole entry): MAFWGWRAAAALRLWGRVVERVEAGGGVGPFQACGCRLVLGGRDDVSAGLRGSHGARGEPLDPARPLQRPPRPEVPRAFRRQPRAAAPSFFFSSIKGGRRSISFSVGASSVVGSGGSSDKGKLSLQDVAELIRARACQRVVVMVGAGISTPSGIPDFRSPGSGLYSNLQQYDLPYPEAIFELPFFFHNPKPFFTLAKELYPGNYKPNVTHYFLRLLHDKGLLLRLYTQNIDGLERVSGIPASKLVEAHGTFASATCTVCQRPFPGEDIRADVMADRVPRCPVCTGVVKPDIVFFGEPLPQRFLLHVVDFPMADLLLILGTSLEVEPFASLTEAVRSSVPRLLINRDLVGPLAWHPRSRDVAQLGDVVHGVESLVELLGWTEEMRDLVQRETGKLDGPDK
measure: pIC50

[
  {
    "compound": "Cc1ccc2[nH]cc(C(=O)On3nnc4ccccc43)c2c1",
    "measure": "pIC50",
    "experimental_result": 4.07
  },
  {
    "compound": "O=C(On1nnc2ccccc21)c1cc[nH]c1",
    "measure": "pIC50",
    "experimental_result": "< 3.70"
  },
  {
    "compound": "O=C(On1nnc2ccccc21)c1ccc[nH]1",
    "measure": "pIC50",
    "experimental_result": "< 3.70"
  }
]
